Molecular target: T1, human PILRA R78 on cells (human, UniProt Q9UKJ1 20-303)
T1 construct: also called hPILRA R78; PILRA 78R
T1 sequence (Q9UKJ1 20-303 limits assumed): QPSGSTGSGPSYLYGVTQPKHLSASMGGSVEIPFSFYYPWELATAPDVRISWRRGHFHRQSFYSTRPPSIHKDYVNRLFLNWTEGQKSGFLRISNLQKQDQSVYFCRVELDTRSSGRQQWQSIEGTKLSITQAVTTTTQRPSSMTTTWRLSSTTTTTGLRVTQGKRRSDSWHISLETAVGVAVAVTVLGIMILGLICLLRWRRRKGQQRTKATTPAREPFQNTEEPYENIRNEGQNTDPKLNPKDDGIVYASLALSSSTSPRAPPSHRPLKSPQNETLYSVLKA
Assay: flow cytometry on PILRA R78 expressing HEK293 cells (FIG. 1F); HEK293 cells expressing PILRA R78
pEC50: −log10 of the molar value.
Reported pEC50 values for the following binders.

>  <binder>
Anti-PILRA antibody clone 12 (antibody, V domains shown, Humanized; also called Ab.12) VH: EVQLVQSGAEVKKPGASVKVSCKASGYTFTEYYMYWVRQAPGQGLELIGRIDPEDGGTDYIEKFKNRVTITADTSTSTAYLELSSLRSEDTAVYYCATTIRGTVFAFWGQGTLVTVSS VL: DIQMTQSPSSLSASVGDRVTITCRASEDIFNGLAWYQQKPGKSPKLLIYNAKTLHTGVPSRFSGSGSGSDYTLTISSLQPEDFATYFCQQYYDYPLTFGQGTKVEIK

>  <pEC50>
8.57

$$$$
>  <binder>
Anti-PILRA antibody clone 7 (antibody, V domains shown) VH: EVQLQQSGPELQRPGASVKLSCKASGYTFTEYYMYWVKQRPKQGLELMGRIDPEDGGTDYVEKFKNKATLTADTSSNTAYMQLSSLTSEDTATYFCASTIRGTVFVYWGQGTLVTVSS VL: DIQMTQSPASLSASLGETVTIECRPSEDIYNGLAWYQQKPGESPQLLIYNANSLHTGVPSRFSGSGSGTQYSLKINSLQSEDVASYFCQQYYDYPLTFGSGTKLEIK

>  <pEC50>
8.60

$$$$
>  <binder>
Anti-PILRA antibody clone 6 (antibody, V domains shown, the printed lines of the VL are out of order there) VH: EVQLQQSGPELQRPGASVKLSCKASGYTFTEYYMYWVKQRPKQGLELIGRIDPEDGGTDYIEKFKNKATLTADTSSNTAYMQLSSLTSEDTATYFCATTIRGTVFAFWGQGTLVTVSS VL: DIQMTQSPASLSASLGETVTIECRASEDIFNGLAWYQQKPGKSPHLLIYNAKTLHTGVPSRFSGSGSGSQYSLKINSLQSEDVASYFCQQYYDYPLTFGSGTKLEIK

>  <pEC50>
8.70

$$$$
>  <binder>
Anti-PILRA antibody clone 15 (antibody, V domains shown, Humanized; also called Ab.15) VH: EVQLVQSGAEVKKPGASVKVSCKASGYTFTEYYMYWVRQAPGQGLELIGRIDPEDGGTDYIEKFKNRSTLTADTSTSTAYLELSSLRSEDTAVYFCATTIRGTVFAFWGQGTLVTVSS VL: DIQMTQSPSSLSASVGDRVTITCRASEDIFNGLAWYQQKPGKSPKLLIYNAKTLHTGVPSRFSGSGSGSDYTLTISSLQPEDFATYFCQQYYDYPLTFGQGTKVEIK

>  <pEC50>
8.57

$$$$
